RECORDED_METRIC: melting point

Illustrative cases are given below, each with its answer.
CCc1cc(CCCc2ccc(CO)c(CO)c2)ccc1O | 82 °C
COC(=O)c1ccc(C(F)(F)F)nc1S(=O)(=O)NC(=O)Nc1nc(OC)cc(OC)n1 | 130 to 137 °C
CCOC(=O)c1nn(Cc2ccc(OC)c(OC)c2)c2cc(OC)c(OC)cc12 | 138 to 141 °C

query: # lookup: melting point of `C(=C\c1cc(/C=C/c2c[nH]c3ccccc23)n[nH]1)/c1ccc(OCc2ccccn2)cc1`
result: 196 to 199 °C

====

Exercise: state measured melting point for each of the molecules provided.

The examples below pair each entry with its known result.
O=C1CCC2(CC3CCC2CC3)C(=O)N1 (stereo not given) | 183 to 184 °C
CC(C)Oc1cc(CCC(=O)NS(=O)(=O)CCCc2ccccc2)n(Cc2ccc(Cl)cc2Cl)n1 | 132 to 134 °C
Cc1c(OCc2ccccc2)ccc2c(O)c(C(=O)Nc3cccc(F)c3)c(=O)oc12 | 220 °C
N#Cc1c(C(=O)O)cnn1-c1ccc(Br)cc1 | 209 to 211 °C

Then this molecule:
query: Which value of melting point has been reported for `Cc1c(-c2ccc(Cl)cc2)n(Cc2ccc(OCCN3CCCCC3)cc2)c2ccc(O)cc12` in the records?
result: 161 to 164 °C
